Target: HCV polymerase (NS5B) type 1b (Hepatitis C virus genotype 1b)
Construct: a region encoding NS5B (J Virol 1991 March, 65(3), 1105-13, 544 amino acids after deletion of 47 amino acids on the C-terminal); 6xHis (C); made in house; host or cells: Escherichia coli
Test: Assay of enzyme (HCV polymerase) inhibitory activity, type 1b enzyme
Type: biochemical, HCV BK strain (type 1b)
Details: HCV polymerase inhibitory activity (IC50), 1b, type 1b enzyme 0.5 μg/ml, 25° C., 60 min
Provide the recorded IC50 for the entries that follow.

Req: Give the measured IC50 of CC(C)c1ccc(CNC(=O)[C@H]2CN(C(=O)CCCCCC(=O)O)CCN2S(=O)(=O)c2ccc(C(F)(F)F)cc2)cc1 [Example 317] .
Resp: 0.1 to 1 µM

Req: GET /values?readout=IC50&item= CCC(F)(F)c1ccc(CNC(=O)[C@H]2CN(C(=O)Nc3cc(C)on3)CCN2S(=O)(=O)c2ccc(OC(F)(F)F)cc2)cc1 [Example 526]
Resp: 0.1 to 1 µM

Req: // lookup IC50 for CC(C)c1ccc(CNC(=O)[C@H]2CN(C(=O)Cn3nccn3)CCN2S(=O)(=O)c2ccc(C(F)(F)F)cc2)cc1 [Example 242]
Resp: 0.1 to 1 µM

Req: Looking for the measured IC50 of CCCc1ccc(S(=O)(=O)N2CCN(c3cnc(C(=O)O)cn3)C[C@@H]2C(=O)NCc2ccc(CCC)cc2C)cc1 [Example 441] , can you help?
Resp: < 0.1 µM

Req: Reported IC50, molecule CC(C)c1ccc(CNC(=O)[C@H]2CN(C(=O)Nc3nnco3)CCN2S(=O)(=O)c2ccc(C(F)(F)F)cc2)cc1 [Example 348] : ____
Resp: 0.1 to 1 µM

Req: Name the recorded IC50 for CSc1ccc(CNC(=O)[C@H]2CN(C(C)=O)CCN2S(=O)(=O)c2ccc(C(C)C)cc2)cc1 [Example 227] .
Resp: 0.1 to 1 µM

Req: Which measured IC50 value corresponds to CCCc1ccc(S(=O)(=O)N2CCN(C(C)=O)CC2C(=O)NCc2ccc(C(F)(F)F)cc2)cc1 (stereo not drawn) [Example 72] ?
Resp: 0.1 to 1 µM

Req: Name the recorded IC50 for CCCc1ccc(CNC(=O)[C@H]2CN(C(=O)Cn3nnnc3C)CCN2S(=O)(=O)c2ccc(OC(F)(F)F)cc2)cc1 [Example 456] .
Resp: < 0.1 µM

Req: Tell me the measured IC50 of CC(=O)N1CCN(S(=O)(=O)c2ccc3c(c2)OC(F)(F)C(F)(F)O3)[C@@H](C(=O)NCc2ccc(C(C)C)cc2)C1 [Example 306] , please.
Resp: 0.1 to 1 µM

Req: I have this molecule here, CC(=O)N1CCN(S(=O)(=O)c2ccc(OC(F)(F)F)c(C(=O)O)c2)[C@@H](C(=O)NCc2ccc(C(C)C)cc2)C1 [Example 305] , and I need its recorded IC50.
Resp: < 0.1 µM

Req: Dear colleague, I am looking for the recorded IC50 of the following molecule: CC(C)c1ccc(CNC(=O)[C@H]2CN(C(=O)Nc3ccnc(C(=O)OC(C)(C)C)c3)CCN2S(=O)(=O)c2ccc(C(F)(F)F)cc2)cc1 [Example 301]
Resp: < 0.1 µM

Req: // lookup IC50 for CC(=O)N1CCN(S(=O)(=O)c2ccc(CO)cc2)C(C(=O)NCc2ccc(C(F)(F)F)cc2)C1 (stereo not drawn) [Example 132]
Resp: > 1 µM

Req: Query: IC50; subject: CCCc1ccc(CNC(=O)[C@H]2CN(c3cnc(C(=O)OC)c(NC(C)=O)n3)CCN2S(=O)(=O)c2ccc(OC(F)(F)F)cc2)cc1 [Example 515]
Resp: < 0.1 µM

Req: Need IC50 of CCCc1ccc(S(=O)(=O)N2CCN(c3nc(C)c(C(=O)O)s3)C[C@@H]2C(=O)NCc2ccc(C(C)C)cc2)cc1 [Example 299] , thanks.
Resp: < 0.1 µM

Req: Given the entry CCC(F)(F)c1ccc(CNC(=O)[C@H]2CN(c3nc(C)c(C(=O)O)s3)CCN2S(=O)(=O)c2ccc(OC(F)(F)F)cc2)cc1 [Example 448] , report its measured IC50.
Resp: < 0.1 µM

Req: I have this molecule here, CC(=O)N1CCN(S(=O)(=O)c2ccc(OC(F)(F)F)cc2)[C@@H](C(=O)NCc2ccc(-c3cccs3)s2)C1 [Example 622] , and I need its recorded IC50.
Resp: 0.1 to 1 µM

Req: What measured IC50 goes with CN(C)c1ccc(CNC(=O)C2CN(C(=O)CCNC(=O)OC(C)(C)C)CCN2S(=O)(=O)c2ccc(I)cc2)cc1 (stereo not drawn) [Example 87] ?
Resp: > 1 µM

Req: // returns reported IC50 for input CCCc1ccc(CNC(=O)[C@H]2CN(c3nc(CO)c(CO)s3)CCN2S(=O)(=O)c2ccc(OC(F)(F)F)cc2)cc1 [Example 562]
Resp: < 0.1 µM

Req: What value of IC50 has been reported for the following molecule? Cc1nc(N2CCN(S(=O)(=O)c3ccc(OC(F)(F)F)cc3)[C@@H](C(=O)NCc3ccc(C4CC4)cc3)C2)sc1C(=O)O [Example 383]
Resp: < 0.1 µM

Req: Record request: IC50 value, item CC(=O)N1CCN(S(=O)(=O)c2ccc(C(C)C)cc2)C(C(=O)NCc2ccc([N+](=O)[O-])cc2)C1 (stereo not drawn) [Example 77]
Resp: > 1 µM

Req: What does the record list as IC50 for CC(=O)N1CCN(S(=O)(=O)c2ccc(C(C)C)cc2)C(C(=O)NCc2ccc(C3CCCC3)cc2)C1 (stereo not drawn) [Example 139] ?
Resp: 0.1 to 1 µM

* * *

Target: HCV polymerase (NS5B) type 1a (Hepatitis C virus genotype 1a, UniProt P26664)
Construct: made in house; host or cells: Escherichia coli (by the 'similar method' of the 1b enzyme)
Assay: Assay of enzyme (HCV polymerase) inhibitory activity, type 1a enzyme
Type: biochemical, HCV type 1a (cloned from the blood of patients)
Details: HCV polymerase inhibitory activity IC50, 1a, type 1a enzyme
quantityKind: IC50

Req: Endpoint output: IC50 of O=C(NCc1ccc(OC(F)F)cc1)[C@H]1CN(c2nc3nc(C4CC4)ncc3s2)CCN1S(=O)(=O)c1ccc(C(F)(F)F)cc1 . Value?
Resp: < 100 nM

Req: Please give the measured IC50 for this compound: COc1ccc(CNC(=O)[C@H]2CN(c3nc4nc(Cl)ncc4s3)CCN2S(=O)(=O)c2ccc(OC(F)(F)F)cc2)cc1
Resp: < 100 nM

Req: State the recorded IC50 for this entry: NC(=O)c1cncc2sc(N3CCN(S(=O)(=O)c4ccc(OC(F)(F)F)cc4)[C@@H](C(=O)NCc4ccc(OC(F)(F)F)cc4)C3)nc12
Resp: < 100 nM

Req: Name the recorded IC50 for O=C(NCc1ccc(OC(F)(F)F)cc1)[C@H]1CN(c2nc3nc[nH]c(=O)c3s2)CCN1S(=O)(=O)c1ccc(OC(F)(F)F)cc1 .
Resp: < 100 nM

Req: Tell me the measured IC50 of O=C(NCc1ccc(OC(F)F)cc1)[C@H]1CN(c2nc3nc(C(F)(F)F)ncc3s2)CCN1S(=O)(=O)c1ccc(OC(F)F)cc1 , please.
Resp: < 100 nM

Req: What value of measured IC50 is listed for CC[N+](CC)(CC)Cc1cnc(N2CCN(S(=O)(=O)c3ccc(OC(F)(F)F)cc3)[C@@H](C(=O)NCc3ccc(C(C)(C)C)cc3)C2)cn1 ?
Resp: 100 to 1000 nM

Req: What does the record list as IC50 for O=C(NCc1ccc(OC(F)(F)F)cc1)[C@H]1CN(c2nn3c(C(F)(F)F)nnc3s2)CCN1S(=O)(=O)c1ccc(OC(F)(F)F)cc1 ?
Resp: < 100 nM

Req: Which measured IC50 value corresponds to O=C(NCc1ccc(OC(F)(F)F)cc1)[C@H]1CN(c2cnc3cnccc3n2)CCN1S(=O)(=O)c1ccc(C(F)(F)F)cc1 ?
Resp: < 100 nM

Req: Quick one: IC50 for CCC(F)(F)c1ccc(CNC(=O)[C@H]2CN(C(=O)N3CCC(C(=O)O)CC3)CCN2S(=O)(=O)c2ccc(OC(F)(F)F)cc2)cc1 ?
Resp: > 1000 nM

Req: Requested field: IC50. Item: O=C(NCc1ccc(OC(F)(F)F)cc1)[C@H]1CN(c2nc3nc(C4(CO)CC4)ncc3s2)CCN1S(=O)(=O)c1ccc(OC(F)(F)F)cc1
Resp: < 100 nM

Req: Given the compound CC(=O)N1CCN(S(=O)(=O)c2ccc(OC(F)(F)F)cc2)[C@@H](C(=O)NCCc2ccccc2O)C1 , what is its reported IC50?
Resp: > 1000 nM

Req: Requested field: IC50. Item: CCC(F)(F)c1ccc(CNC(=O)[C@H]2CN(c3nc4cn[nH]c(=O)c4s3)CCN2S(=O)(=O)c2ccc(OC(F)(F)F)cc2)cc1
Resp: < 100 nM

Req: // returns reported IC50 for input O=C(NCc1ccc(OC(F)(F)F)cc1)[C@H]1CN(c2nn3ccc(=O)nc3s2)CCN1S(=O)(=O)c1ccc(C(F)(F)F)cc1
Resp: < 100 nM

Req: Returns the measured IC50 for the input compound. Input: O=C(NCc1ccc(OC(F)(F)F)cc1)[C@H]1CN(c2nc3c(CO)nncc3s2)CCN1S(=O)(=O)c1ccc(OC(F)(F)F)cc1
Resp: < 100 nM
